EXPERIMENTAL SYSTEM: T1, recombinant cynomolgus PILRA (SEQ ID NO:120) (cynomolgus monkey)
T1 construct: also called cyno PILRA
T1 sequence (chain, as listed by the source limits assumed): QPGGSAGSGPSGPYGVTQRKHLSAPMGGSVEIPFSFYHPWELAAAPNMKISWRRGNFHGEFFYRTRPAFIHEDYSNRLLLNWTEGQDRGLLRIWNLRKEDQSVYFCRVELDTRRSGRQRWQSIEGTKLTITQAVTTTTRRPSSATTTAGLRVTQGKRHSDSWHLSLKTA
ASSAY PROCEDURE: SPR, Carterra LSA, antibody amine-coupled, kinetic fit
Some binders, each annotated with its measured Kd.
# do not omit the unit; it follows the number

Here's what some known entries look like.
BINDER	Kd
X15 (antibody, human IgG4, V domains shown) VH: QVQLVQSGAEVKKPGSSVKVSCKASGYNFLHYDVNWVRQAPGQGLEWMGGIIPIFGTANYAQKFQGRVTITADESTSTAYMELSSLRSEDTAVYYCATAVGAGWFDTWGQGTLVTVSS VL: DIVMTQSPDSLAVSLGERATINCKSSQSVFFDVNNKNYLAWYQQKPGQPPKLLIYWASTRESGVPDRFSGSGSGTDFTLTISSLQAEDVAVYYCQQYFEEPYTFGQGTRLEIK	0.1 nM
X20 (antibody, human IgG4, V domains shown, conditioned media in the HEK293F assays) VH: QVQLVQSGAEVKKPGSSVKVSCKASGYNFLHYDVNWVRQAPGQGLEWMGGIIPIFGTANYAQKFQGRVTITADESTSTAYMELSSLRSEDTAVYYCATAVGAGWFDPWGQGTLVTVSS VL: DIVMTQSPDSLAVSLGERATINCKSSQSVYFSENNKNYLAWYQQKPGQPPKLLIYWASTRESGVPDRFSGSGSGTDFTLTISSLQAEDVAVYYCQQYYEEPYTFGQGTRLEIK	0.1 nM
X17 (antibody, human IgG4, V domains shown) VH: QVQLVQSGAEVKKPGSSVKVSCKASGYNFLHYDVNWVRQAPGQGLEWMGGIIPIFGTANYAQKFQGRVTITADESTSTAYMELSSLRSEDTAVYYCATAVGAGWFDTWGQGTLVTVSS VL: DIVMTQSPDSLAVSLGERATINCKSSQSVFFDENNKNYLAWYQQKPGQPPKLLIYWASTRESGVPDRFSGSGSGTDFTLTISSLQAEDVAVYYCQQYFEEPYTFGQGTRLEIK	0.1 nM

Quick check: Kd of X7 (antibody, human IgG4, V domains shown, conditioned media in the HEK293F assays) VH: QVQLVQSGAEVKKPGSSVKVSCKASGYNFLNYDVNWVRQAPGQGLEWMGGIIPIFGTANYAQKFQGRVTITADESTSTAYMELSSLRSEDTAVYYCATGVGAGWFDPWGQGTLVTVSS VL: DIVMTQSPDSLAVSLGERATINCKSSQSVFFDENNKNYLAWYQQKPGQPPKLLIYWASTRESGVPDRFSGSGSGTDFTLTISSLQAEDVAVYYCQQYFEEPYTFGQGTRLEIK ?
0.4 nM

Entry to check: X5 (antibody, human IgG4, V domains shown) VH: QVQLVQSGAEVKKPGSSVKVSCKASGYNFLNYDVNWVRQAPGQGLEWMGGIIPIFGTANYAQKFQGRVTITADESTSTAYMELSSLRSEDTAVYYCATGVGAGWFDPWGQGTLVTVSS VL: DIVMTQSPDSLAVSLGERATINCKSSQSVFFDVNNKNYLAWYQQKPGQPPKLLIYWASTRESGVPDRFSGSGSGTDFTLTISSLQAEDVAVYYCQQYFEEPYTFGQGTRLEIK
0.1 nM

Entry to check: X32 (antibody, human IgG4, V domains shown) VH: QVQLVQSGAEVKKPGSSVKVSCKASGYNFLHYDVNWVRQAPGQGLEWMGGIIPIFGTANYAQKFQGRVTITADESTSTAYMELSSLRSEDTAVYYCATAVGAGWFDPWGQGTLVTVSS VL: DIVMTQSPDSLAVSLGERATINCKSSQSVFFDVNNKNYLAWYQQKPGQPPKLLIYWASTRESGVPDRFSGSGSGTDFTLTISSLQAEDVAVYYCQQYYEEPYTFGQGTRLEIK
0.1 nM
